Test system: LPS-induced microglia activation
Assay: Image-based assay of LPS-induced microglia activation (HTS and dose response)
Format: cell-based, rat
Conditions: Rattus norvegicus, Microglia, primary HTS, 10 μM, LPS-stimulated primary microglia; read-out: LPS % inhibition
Where a name gives a salt, the structure may show the parent alone.
TEST READOUT: inhibition at 10 µM (%)
Answer with a number only, understood to be in %.

### Prompt Form entry - test system: LPS-induced microglia activation; read-out: inhibition at 10 µM; compound: C[C@]12CCC(=O)C=C1C=C[C@@H]1[C@@H]2CC[C@@]2(C)[C@H]1CC[C@@]2(O)CCC(=O)O [Canrenoic Acid, Potassium Salt]
### Response 8

### Prompt # repeat for `COc1cc2c(cc1OC)[C@@]13CCN4CC5=CCO[C@H]6CC(=O)N2[C@H]1[C@H]6[C@H]5C[C@H]43`
### Response 13

### Prompt # repeat for Clc1ccc(Cn2c(CN3CCCC3)nc3ccccc32)cc1 [Clemizole Hydrochloride]
### Response 21

### Prompt # repeat for `CN(C)[C@@H]1C(O)=C(C(N)=O)C(=O)[C@@]2(O)C(O)=C3C(=O)c4c(O)ccc(Cl)c4[C@@](C)(O)[C@H]3C[C@@H]12`
### Response -6
